Where do the numbers come from? From patent US20260217797A1.

- Assay Target: SARS-CoV-2 Spike S1-His (SARS-CoV-2, UniProt P0DTC2 16-685)
- Assay Info: Octet BLI, IgG, monovalent
Entries and their measured Kd follow.
Provide only the numeric value, understood in nM.

INSERT INTO measurements (binder, result_number) VALUES
  ('A-23 (antibody, V domains shown) VH: EVQLVESGGGLVQPGRSLRLSCAASGFTFDDYAMHWVRQAPGKGLEWVSGISWNSGTIGYADSVKGRFIISRDNAKNSLYLQMNSLRGEDMALYYCGKDRKREDPSLGGMDVWGQGTTVTVSS VL: SYVLTQPPSVSVAPGQTARITCGGNNIGSKSVHWYQQKPGQAPVLVVYDDTDRPSGIPERFSGSNSGNTATLTISRVEAGDEADYYCQVWDSSSDHYVFGTGTKVTVL', 2.11),
  ('A-24.3 (antibody, V domains shown) VH: EVQLVESGGGLVKPGRSLRLSCAASGFTFADYTMSWFRQAPGKGLEWVGFIRSEPYGGTTEYAASVKGRFTISRDDSKSIAYLQMNSLKTEDTAVYYCSRDPWYCSGGDCYAVTGSWFDPWGQGTLVTVSS VL: DIQMTQSPSSLSASVGDRVTITCQASRDIKKYLNWYQQKPGKAPKLLIYDVSNLETGVPSRFSGSGSGTDFTFTISSLQPEDVAIYYCQQYDQLPQTFGQGTKVEIE', 0.479);

Pending binder:
Ask: Look up Kd of A-23.1 (antibody, V domains shown) VH: EVQLVESGGGLVQPGRSLRLSCAASGFTIDDYAMHWVRQAPGKGLEWVSGISWNGGTIGYADSVKGRFIISRDNAKNSLYLQMNSLRGEDMALYYCGKDRKREDPSLGGMDVWGQGTTVTVSS VL: SYVLTQPPSVSVAPGQTARITCLGNNIGSKSVHWYQQKPGQAPVLVVYDDTDRPSGIPERFSGSNSGNTATLTISRVEAGDEADYYCQVWDSESDHYVFGTGTKVTVL and report it.
Reply: 0.829
